Ref: patent US20220073621A1

Listing of recorded pKd by entry.
# Measured On: T1, hPD-L1-His (human, UniProt Q9NZQ7 19-238)
# T1 construct: Bought protein; also called hPD-L1-His (manufactured by Edison); not shown: His tag
# Procedure Summary: SPR (Biacore T200), antibody on Protein A chip, hPD-L1-His injected, 1:1 fit
In simple prose, pKd is minus the logarithm base ten of a concentration in moles per litre.

Binder	Observed Measurement
6A11-H4K3-IgG1 (antibody, V domains shown) VH: EVQLVESGGGLVQPGGSRRLSCAASGFTFSSFGMHWVRQAPGKGLEWVAYISSGSNTIYYADTVKGRFTISRDNPKNSLYLQMNSLRAEDTAIYYCTRNGYDGWYAMDYWGQGTTVTVSS VL: EIVLTQSPATLSASPGERATLSCSASSSVSYIHWFQQKPGQSPRRWIYDTSKLASGIPARFSGSGSGTDYTLTISSMEPEDFATYYCQQWSTNPFTFGQGTKLEIKR	8.15

Could you now consider this next binder?
**Q:** Any idea what its pKd is? The binder is 7E4-H1K1-IgG1 (antibody, V domains shown) VH: QVQLVQSGAEVKKPGASVKVSCKASGFKFTDYAIHWVRQAPGQSLEWMGVISIYYGEASYNQKFKDRVTLTVDTSASTAYMELSSLRSEDTAVYYCAREDYYGSSSYFDYWGQGTLVTVSS VL: DNQLTQSPSFLSASVGDRVTITCSASSSVSSSYLHWYQQKPGAAPKPLIHRTSNLASGVPSRFSGSGSGTEFTLTISSLQPEDFATYYCQQWSGYPYTFGGGTKLEIK
**A:** 7.58
